Test system: FM-MEL-6
Assay: drug sensitivity score (DSS) (DSS (unitless)); higher = more sensitive
Conditions: 72 h; culture: 2D
readout-label: drug sensitivity score
A bare number is all that is needed in reply.

Examples with answers:
[
  {
    "molecule-smiles": "CNc1ncc2cc(-c3cc(NC(=O)NCCC(C)(C)C)c(F)cc3C)c(C)nc2n1",
    "drug sensitivity score": 11.3
  },
  {
    "molecule-smiles": "CC(C)(C)c1cc(NC(=O)Nc2ccc(-c3cn4c(n3)sc3cc(OCCN5CCOCC5)ccc34)cc2)no1",
    "drug sensitivity score": 0
  },
  {
    "molecule-smiles": "Cn1c(=O)n(-c2ccc(C(C)(C)C#N)cc2)c2c3cc(-c4cnc5ccccc5c4)ccc3ncc21",
    "drug sensitivity score": 7.4
  }
]

Then this compound:
### Prompt I have this compound here, `Cn1cnc2c(F)c(Nc3ccc(Br)cc3F)c(C(=O)NOCCO)cc21` , and I need its recorded drug sensitivity score.
### Response 9.4

---

// reported drug sensitivity score for each item listed
Test system: FM-MEL-6
Experiment: drug sensitivity score (DSS) (DSS (unitless, 0-50 scale)); higher = more sensitive (stronger viability inhibition); extreme values may be limits of the assay
Settings: 72 h; culture: 2D
Reply briefly: the number, and no unit.

Worked cases, answers included:
[
  {
    "molecule-smiles": "CCS(=O)(=O)c1cccc(-c2cc(C(=O)NC3CCN(C)CC3)c(C)c3[nH]c4ncc(C)cc4c23)c1",
    "drug sensitivity score": 1.9
  },
  {
    "molecule-smiles": "CNC(=O)c1cccc2cc(Oc3ccnc4cc(OCC5(N)CC5)c(OC)cc34)ccc12",
    "drug sensitivity score": 1.3
  },
  {
    "molecule-smiles": "O=C(Nc1cc(Cl)cc2c1[nH]c1cnccc12)c1cccnc1",
    "drug sensitivity score": 0
  },
  {
    "molecule-smiles": "Oc1nc(-c2ccc(C(F)(F)F)cc2)nc2c1CSCC2",
    "drug sensitivity score": 0
  },
  {
    "molecule-smiles": "C/C=C1\\NC(=O)[C@H]2CSSCC/C=C/[C@H](CC(=O)N[C@H](C(C)C)C(=O)N2)OC(=O)[C@H](C(C)C)NC1=O",
    "drug sensitivity score": 26.5
  },
  {
    "molecule-smiles": "O=C(Nc1nc2cccc(-c3ccc(CN4CCS(=O)(=O)CC4)cc3)n2n1)C1CC1",
    "drug sensitivity score": 4.5
  }
]

### Prompt Look up drug sensitivity score for this molecule: `COc1cc(OC2CCN(C)CC2)ccc1Nc1ncc2c(n1)n(C1CCCC1)c(=O)n2C`
### Response 3

### Prompt Would you mind doing `COc1cc2ncnc(Nc3ccc(F)c(Cl)c3)c2cc1OCCCN1CCOCC1` as well?
### Response 2.7

---

# maps each entry to its drug sensitivity score
Tested on: Bowes
Assay: drug sensitivity score (DSS) (DSS (unitless, 0-50 scale)); higher = more sensitive (stronger viability inhibition); extreme values may be limits of the assay
Conditions: 72 h; culture: 2D
Keep the answer to the number alone.

Below, 5 compounds whose answers are already recorded.
[
  {
    "compound": "CCn1c(=O)c(-c2ccc(Cl)cc2Cl)cc2cnc(Nc3ccc(N4CCNCC4)c(F)c3)nc21",
    "drug sensitivity score": 9.7
  },
  {
    "compound": "Cc1c(N)nc([C@H](CC(N)=O)NC[C@H](N)C(N)=O)nc1C(=O)N[C@H](C(=O)N[C@H](C)[C@@H](O)[C@H](C)C(=O)N[C@H](C(=O)NCCc1nc(-c2nc(C(=O)NCCC[S+](C)C)cs2)cs1)[C@@H](C)O)[C@@H](OC1OC(CO)C(O)C(O)C1OC1OC(CO)C(O)C(OC(N)=O)C1O)c1cnc[nH]1 (some centres not stated)",
    "drug sensitivity score": 0.9
  },
  {
    "compound": "O=c1[nH]cc(F)c(=O)[nH]1",
    "drug sensitivity score": 0
  },
  {
    "compound": "O=C(O)C1(C(=O)O)CCC1.[NH2-].[NH2-].[Pt+2]",
    "drug sensitivity score": 0
  },
  {
    "compound": "Oc1nc(-c2ccc(C(F)(F)F)cc2)nc2c1CSCC2",
    "drug sensitivity score": 0
  }
]

### Prompt drug sensitivity score for `C=CC(=O)Nc1cc2c(Nc3ccc(F)c(Cl)c3)ncnc2cc1OCCCN1CCOCC1` ?
### Response 8.7

### Prompt Ok, now `O=C(Nc1cc(Cl)cc2c1[nH]c1cnccc12)c1cccnc1`
### Response 0
